- ASSAY SUMMARY: Kinetics of hydrolysis at pH 7.0
- Format: physicochemical
- TEST CONDITIONS: phosphate buffer
QUANTITY KIND: half-life at 2.25 mM (h)

[
  {
    "COMPOUND": "CC(C)[C@H](N)C(=O)OCC1(CO)C/C1=C/n1cnc2c(=O)[nH]c(N)nc21.Cl (mixture of isomers)",
    "REPORTED": 22.5
  }
]

* * *

- ASSAY SUMMARY: Pharmacokinetics after IV bolus dosing of prodrug
- Format: in vivo
- TEST CONDITIONS: male, Swiss-Webster, mouse, plasma, iv, 24.6 mg/kg, Area under the curve, AUC, analyte prodrug (6); mice, IV 24.6 mg/kg prodrug; single compartment first order elimination model

[
  {
    "MOLECULE": "CC(C)[C@H](N)C(=O)OCC1(CO)C/C1=C/n1cnc2c(=O)[nH]c(N)nc21.Cl (mixture of isomers)",
    "UNIT SPEC": "ng·h/mL",
    "AUC": 1020
  }
]

* * *

- ASSAY SUMMARY: Stability of prodrug / conversion to cyclopropavir in mouse whole blood
- Assay type: in vitro ADME
- TEST CONDITIONS: male, Swiss-Webster, mouse, whole blood

[
  {
    "MOLECULE": "CC(C)[C@H](N)C(=O)OCC1(CO)C/C1=C/n1cnc2c(=O)[nH]c(N)nc21.Cl (mixture of isomers) [Valcyclopropavir (6)]",
    "half-life at 50 μM [h]": 22
  }
]

* * *

- ASSAY SUMMARY: Visual cytotoxicity in uninfected HFF's used in plaque reduction assays
- Assay type: cell-based
- TEST CONDITIONS: human, uninfected human foreskin fibroblasts (HFF)

[
  {
    "COMPOUND": "Nc1nc(O)c2ncn(COC(CO)CO)c2n1 [Ganciclovir, reference compound]",
    "CC50": "> 100 µM"
  },
  {
    "COMPOUND": "Nc1nc2c(ncn2/C=C2/CC2(CO)CO)c(=O)[nH]1 [Cyclopropavir (5)]",
    "CC50": "> 100 µM"
  },
  {
    "COMPOUND": "CC(C)[C@H](N)C(=O)OCC1(CO)C/C1=C/n1cnc2c(=O)[nH]c(N)nc21.Cl (mixture of isomers) [Valcyclopropavir (6)]",
    "CC50": "> 100 µM"
  }
]
